Data credit: paper PMC10605077

test system: HIV-1 BaL (R5); test: Anti-HIV activity in infected TZM-bl cells (luciferase), pre- and post-infection treatment; assay type: cell-based, Human Immunodeficiency Virus Type 1 (HIV-1); conditions: Human immunodeficiency virus 1, BAL; 18 µM, TZM-bl cells; read-out: Percentage inhibition of HIV-1 BaL replication
inhibition at 18 µM overview

Compound | inhibition at 18 µM / %
CN(C)[C@@H](Cc1cc(Br)c(O)c(Br)c1)C(=O)O [TDB-2M] | -57.9
COc1c(Br)cc(CC[N+](C)(C)C)cc1Br [YODB-3M] | -25.1
COc1c(Br)cc(C[C@@H](C(=O)O)N(C)C)cc1Br [TODB-2M] | 36.3
C[N+](C)(C)CCc1cc(Br)c(O)c(Br)c1 [YDB-3M] | 7.2

###

tested on: HIV-1IIIB (X4); assay: Anti-HIV activity in infected TZM-bl cells (luciferase), pre- and post-infection treatment; format: cell-based, Human Immunodeficiency Virus Type 1 (HIV-1); conditions: Human immunodeficiency virus 1, TZM-bl, read-out: Percentage inhibition of HIV-1IIIB (X4 strain) replication
Recorded measurements of inhibition at 150 µM, one per entry

Compound Smiles | U | inhibition at 150 µM
CN(C)CCc1cc(Cl)c(O)c(Cl)c1 | % | 29.1
COc1c(Br)cc(CCN(C)C)cc1Br | % | -17
COc1c(Cl)cc(CCN(C)C)cc1Cl | % | 2.5
CN(C)CCc1cc(Br)c(O)c(Br)c1 | % | -20.7

###

system: HIV-1IIIB (X4); test: Anti-HIV activity in infected TZM-bl cells (luciferase), pre- and post-infection treatment; format: cell-based, Human Immunodeficiency Virus Type 1 (HIV-1); conditions: Human immunodeficiency virus 1, TZM-bl, read-out: Percentage inhibition of HIV-1IIIB (X4 strain) replication
# inhibition at 75 µM listing for each entry below
Outcome Measure: inhibition at 75 µM (%)

Compound Smiles | Outcome Measure | U | Readout Value
CN(C)CCc1cc(Br)c(O)c(Br)c1 | inhibition at 75 µM | % | 9.8
CN(C)CCc1cc(Cl)c(O)c(Cl)c1 | inhibition at 75 µM | % | 22.6
COc1c(Cl)cc(CCN(C)C)cc1Cl | inhibition at 75 µM | % | -2.2
COc1c(Br)cc(CCN(C)C)cc1Br | inhibition at 75 µM | % | -20.2

###

CC50 at 48 h reference
assay: MTT cytotoxicity assay; format: cell-based; settings: human; TZM-bl cells, MTT, 48 h

Compound Smiles | Bound Sign | CC50 at 48 h / µM
COc1c(Cl)cc(C[C@@H](C(=O)O)[N+](C)(C)C)cc1Cl | = | 74.9
C[N+](C)(C)[C@@H](Cc1cc(Cl)c(O)c(Cl)c1)C(=O)O | > | 300
COc1c(Cl)cc(C[C@@H](C(=O)O)N(C)C)cc1Cl | > | 300
COc1c(Br)cc(C[C@@H](C(=O)O)N(C)C)cc1Br | = | 165

###

test system: HIV-1 BaL (R5); test: Anti-HIV activity in infected TZM-bl cells (luciferase), pre- and post-infection treatment; assay type: cell-based, Human Immunodeficiency Virus Type 1 (HIV-1); conditions: Human immunodeficiency virus 1, BAL, TZM-bl, read-out: Percentage inhibition of HIV-1 BaL replication
Outcome Measure: inhibition at 37 µM (%)

Compound Smiles | Outcome Measure | Readout Value
COc1c(Br)cc(CCN(C)C)cc1Br | inhibition at 37 µM | -73.9
CN(C)CCc1cc(Cl)c(O)c(Cl)c1 | inhibition at 37 µM | 8.8
COc1c(Cl)cc(CCN(C)C)cc1Cl | inhibition at 37 µM | 12.2
CN(C)CCc1cc(Br)c(O)c(Br)c1 | inhibition at 37 µM | 2.7

###

System: HIV-1 BaL (R5)
Assay: Anti-HIV activity in infected TZM-bl cells (luciferase), pre- and post-infection treatment
Format: cell-based, Human Immunodeficiency Virus Type 1 (HIV-1)
Settings: Human immunodeficiency virus 1, BAL; 18 µM, TZM-bl cells; read-out: Percentage inhibition of HIV-1 BaL replication
Procedure: TZM-bl cells were plated in a flat-bottom 96-well plate (Corning Inc., Corning, New York, NY, USA) at the concentration of 1.2 × 10^5 cells/well and incubated for 24 h at 37 °C before the addition or not of each compound at non-cytotoxic concentrations (pre-infection treatment). […] Antiviral activity was quantified 48 h after treatment by measuring luciferase activity, which is directly proportional to the number of infectious virus particles in the sample [23]. […]
Listed compounds paired with reported inhibition at 18 µM

Compound | inhibition at 18 µM [%]
C[N+](C)(C)CCc1cc(Cl)c(O)c(Cl)c1 [YDC-3M] | 50.2
COc1c(Cl)cc(CC[N+](C)(C)C)cc1Cl [YODC-3M] | -19.7
COc1c(Br)cc(C[C@@H](C(=O)O)[N+](C)(C)C)cc1Br [TODB-3M] | -26
C[N+](C)(C)[C@@H](Cc1cc(Br)c(O)c(Br)c1)C(=O)O [TDB-3M] | -20.5
COc1c(Cl)cc(C[C@@H](C(=O)O)N(C)C)cc1Cl [TODC-2M] | 38

###

system: HIV-1 BaL (R5); assay: Anti-HIV activity in infected TZM-bl cells (luciferase), pre- and post-infection treatment; format: cell-based, Human Immunodeficiency Virus Type 1 (HIV-1); conditions: Human immunodeficiency virus 1, BAL; 75 µM, TZM-bl cells; read-out: Percentage inhibition of HIV-1 BaL replication
Outcome Measure: inhibition at 75 µM (%)

Compound Smiles | U | Readout Value
C[N+](C)(C)[C@@H](Cc1cc(Cl)c(O)c(Cl)c1)C(=O)O | % | 39.7
CN(C)[C@@H](Cc1cc(Br)c(O)c(Br)c1)C(=O)O | % | -19.2
C[N+](C)(C)[C@@H](Cc1cc(Br)c(O)c(Br)c1)C(=O)O | % | -18
COc1c(Br)cc(CC[N+](C)(C)C)cc1Br | % | -9
